# Test system: pathogenic bacteria
# assay-name: MIC by microdilution broth method (NCCLS M7-A4), in vitro antibacterial activity
# Format: cell-based
# protocol-conditions: Streptococcus pneumoniae, Organism C: fluoroquinolone-resistant clinical isolate of Streptococcus pneumoniae (QRDR amino acid substitutions)
# Experimental: Minimal inhibitory concentration (MIC) has been an indicator of in vitro antibacterial activity widely used in the art. The in vitro antimicrobial activity of the compounds was determined by the microdilution broth method following the test method from the National Committee for Clinical Laboratory Standards (NCCLS). […] Following inoculation of the microdilution trays, the trays are incubated at 35° C. for 16-20 hours and then read. […]
Counter-ions that a name gives are not always drawn.
What MIC was measured for each of the following?
Give bare numbers, in µg/mL.

Example cases with answers are listed next.
| molecule | MIC [µg/mL] |
| --- | --- |
| NC/C(Cl)=C1/CCCN(c2nc3c(cc2F)c(=O)c(C(=O)O)cn3C2CC2)CC1 [Compound 379] | 8 |
| NCC(F)=C1CCN(c2nc3c(cc2F)c(=O)c(C(=O)O)cn3C2CC2)CC1 [Compound 1] | 0.5 |
| Nc1nc(-n2cc(C(=O)O)c(=O)c3cc(F)c(N4CCC/C(=C(/F)CO)C4)c(Cl)c32)c(F)cc1F [Compound 359, Trifluoroacetate] | 8 |
| CNCC=C1CCN(c2c(F)cc3c(=O)c(C(=O)O)cn(C4CC4)c3c2OC)CC1 [Compound 221, Trifluoroacetic Acid Salt] | 4 |
| CC(C)NCC(Cl)=C1CCN(c2cc3c(cc2F)c(=O)c(C(=O)O)cn3C2CC2)CC1 [Compound 248] | 16 |
| COc1c(N2CCC(=C(Cl)CN)CC2)ccc2c(=O)c(C(=O)O)cn(C3CC3)c12 [Compound 275] | 1 |

Hi! Can you tell me MIC for each of these molecules?
1. CC1(C)CN(c2nc3c(cc2F)c(=O)c(C(=O)O)cn3C2CC2)CCC1=C(Br)CN [Compound 176]
2. C[C@H]1COc2c(N3CCC/C(=C(/Cl)CN)C3)c(F)cc3c(=O)c(C(=O)O)cn1c23 [Compound 448]

Output:
1. 1
2. 8

###

# Tested on: pathogenic bacteria
# assay-name: MIC by microdilution broth method (NCCLS M7-A4), in vitro antibacterial activity
# Type: cell-based
# protocol-conditions: Streptococcus pneumoniae, Organism B: fluoroquinolone-resistant clinical isolate of Streptococcus pneumoniae (QRDR amino acid substitutions)
recorded-metric: MIC (µg/mL)
One number for each entry, in µg/mL.

| molecule | reading |
| --- | --- |
| C/C(CN)=C1/CCCN(c2nc3c(cc2F)c(=O)c(C(=O)O)cn3-c2ccc(F)cc2F)C1 [Compound 381] | 4 |

Hi! Can you tell me MIC for each of these molecules?
1. CC(CO)=C1CCN(c2c(F)cc3c(=O)c(C(=O)O)cn4c3c2OCC4C)CC1 (stereo not drawn) [Compound 211]
2. Nc1nc(-n2cc(C(=O)O)c(=O)c3cc(F)c(N4CCC/C(=C(/Cl)CO)C4)c(Cl)c32)c(F)cc1F [Compound 416]

Output:
1. 4
2. 16

Hi! Can you tell me MIC for each of these molecules?
1. COc1c(N2CC(=C(F)CN)C2)c(F)cc2c(=O)c(C(=O)O)cn(C3CC3)c12 [Compound 273]
2. COc1c(N2CCC/C(=C(/C)CN)C2)c(F)cc2c(=O)c(C(=O)O)cn(C3CC3)c12 [Compound 392]

Output:
4
16

Hi! Can you tell me MIC for each of these molecules?
1. NCC(Cl)=C1CN(c2c(F)cc3c(=O)c(C(=O)O)cn(-c4nc(N)c(F)cc4F)c3c2Cl)C1 [Compound 268]
2. COc1c(N2CCC(=C(Cl)CN(C)C)CC2)c(F)cc2c(=O)c(C(=O)O)cn(C3CC3)c12 [Compound 191]
3. COc1c(N2CC(=C(F)CN)C2)ccc2c(=O)c(C(=O)O)cn(C3CC3)c12 [Compound 274]
4. NC/C(Cl)=C1\CCCN(c2nc3c(cc2F)c(=O)c(C(=O)O)cn3C2CC2)C1 [Compound 255]
5. NCC(Cl)=C1CCN(c2nc3c(cc2F)c(=O)c(C(=O)O)cn3-c2ccc(F)cc2F)CC1 [Compound 271]
6. NC/C(F)=C1\COCCN(c2nc3c(cc2F)c(=O)c(C(=O)O)cn3C2CC2)C1 [Compound 498]

Output:
0.06
8
4
2
1
4

Hi! Can you tell me MIC for each of these molecules?
1. C[C@H]1COc2c(N3CCC/C(=C(\Cl)CN)C3)c(F)cc3c(=O)c(C(=O)O)cn1c23 [Compound 400]
2. C/C(CN)=C1\CCCN(c2nc3c(cc2F)c(=O)c(C(=O)O)cn3-c2ccc(F)cc2F)C1 [Compound 380]

Output:
1. 0.25
2. 8

Hi! Can you tell me MIC for each of these molecules?
1. NCC(Cl)=C1CCN1c1cc2c(cc1F)c(=O)c(C(=O)O)cn2C1CC1 [Compound 76]
2. COc1c(N2CCC(=C(F)CN)C(C)(C)C2)c(F)cc2c(=O)c(C(=O)O)cn(C3CC3)c12 [Compound 78]

Output:
1. 2
2. 2
